The reported numbers originate from paper doi:10.1101/2021.01.05.425432v2.

# Study System: H. pylori urease (HPU) (Helicobacter pylori, UniProt P69996)
# Sequence (P69996 whole entry): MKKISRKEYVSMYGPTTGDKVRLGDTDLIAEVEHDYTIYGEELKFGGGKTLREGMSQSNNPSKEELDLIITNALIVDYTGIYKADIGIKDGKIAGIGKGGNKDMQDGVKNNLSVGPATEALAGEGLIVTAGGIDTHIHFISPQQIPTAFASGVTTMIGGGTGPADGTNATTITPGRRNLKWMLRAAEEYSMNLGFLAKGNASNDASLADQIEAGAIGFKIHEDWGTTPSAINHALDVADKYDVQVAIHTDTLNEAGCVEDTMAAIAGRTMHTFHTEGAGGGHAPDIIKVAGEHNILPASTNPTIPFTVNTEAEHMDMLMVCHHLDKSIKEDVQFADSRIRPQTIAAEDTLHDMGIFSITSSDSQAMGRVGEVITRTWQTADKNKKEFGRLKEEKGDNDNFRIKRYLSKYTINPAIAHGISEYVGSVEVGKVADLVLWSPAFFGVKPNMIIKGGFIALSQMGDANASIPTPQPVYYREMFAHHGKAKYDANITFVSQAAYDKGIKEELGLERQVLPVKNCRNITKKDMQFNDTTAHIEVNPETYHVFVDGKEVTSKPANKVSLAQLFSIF
# Sequence (P14916 whole entry partner): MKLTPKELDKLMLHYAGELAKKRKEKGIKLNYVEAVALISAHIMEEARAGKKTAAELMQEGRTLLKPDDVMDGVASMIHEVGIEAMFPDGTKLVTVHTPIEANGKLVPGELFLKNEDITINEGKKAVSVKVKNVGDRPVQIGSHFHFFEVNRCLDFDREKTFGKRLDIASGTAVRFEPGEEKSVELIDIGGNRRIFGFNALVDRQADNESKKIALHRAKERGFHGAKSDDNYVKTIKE
# Assay Protocol: tandem-well NH3 assay, Nessler's reagent, crude extract
# Format: biochemical
# Measurement Setup: 25 mM urea, 100 μM NiCl2, 50 mM phosphate pH 7.4, 37 °C, 30 min preincubation
Reported IC50 values for a set of compounds

{"Compound": "CSn1[se]c2ccccc2c1=O [compound 6, 2-Methylthio-benzisoseleno-3-one]", "IC50": "1300 nM"}

The record that follows has no IC50 shown yet.
Task: Recall the recorded IC50 for COc1ccc2c(=O)n(-c3ccccc3)[se]c2c1 [compound 1, 2-Phenyl-6-methoxybenzoisoselen-3-one] with H. pylori urease (HPU) (Helicobacter pylori, UniProt P69996) and state it.
Output: 2000 nM

* * *

# Study System: H. pylori urease (HPU) (Helicobacter pylori, UniProt P69996)
# Assay Protocol: tandem-well NH3 assay, Nessler's reagent, crude extract
# Assay type: biochemical
Experimental Endpoint: pIC50
Schema: pIC50 number; meaning minus log10 of the concentration expressed in molar units.

{"Compound": "CN(C)Cc1c(C(=O)NCCOc2ccc(C(=O)NO)cc2)oc2ccccc12 [abexinostat]", "Study System": "H. pylori urease (HPU) (Helicobacter pylori, UniProt P69996)", "pIC50": 5.89}

The record that follows has no pIC50 shown yet.
Task: Using the record for O=c1c2ccccc2[se]n1-c1ccccc1 [ebselen] , report its pIC50.
Output: 5.55

* * *

# Study System: jack bean urease (JBU) (Canavalia ensiformis, UniProt P07374)
# Sequence (P07374 whole entry, looked up): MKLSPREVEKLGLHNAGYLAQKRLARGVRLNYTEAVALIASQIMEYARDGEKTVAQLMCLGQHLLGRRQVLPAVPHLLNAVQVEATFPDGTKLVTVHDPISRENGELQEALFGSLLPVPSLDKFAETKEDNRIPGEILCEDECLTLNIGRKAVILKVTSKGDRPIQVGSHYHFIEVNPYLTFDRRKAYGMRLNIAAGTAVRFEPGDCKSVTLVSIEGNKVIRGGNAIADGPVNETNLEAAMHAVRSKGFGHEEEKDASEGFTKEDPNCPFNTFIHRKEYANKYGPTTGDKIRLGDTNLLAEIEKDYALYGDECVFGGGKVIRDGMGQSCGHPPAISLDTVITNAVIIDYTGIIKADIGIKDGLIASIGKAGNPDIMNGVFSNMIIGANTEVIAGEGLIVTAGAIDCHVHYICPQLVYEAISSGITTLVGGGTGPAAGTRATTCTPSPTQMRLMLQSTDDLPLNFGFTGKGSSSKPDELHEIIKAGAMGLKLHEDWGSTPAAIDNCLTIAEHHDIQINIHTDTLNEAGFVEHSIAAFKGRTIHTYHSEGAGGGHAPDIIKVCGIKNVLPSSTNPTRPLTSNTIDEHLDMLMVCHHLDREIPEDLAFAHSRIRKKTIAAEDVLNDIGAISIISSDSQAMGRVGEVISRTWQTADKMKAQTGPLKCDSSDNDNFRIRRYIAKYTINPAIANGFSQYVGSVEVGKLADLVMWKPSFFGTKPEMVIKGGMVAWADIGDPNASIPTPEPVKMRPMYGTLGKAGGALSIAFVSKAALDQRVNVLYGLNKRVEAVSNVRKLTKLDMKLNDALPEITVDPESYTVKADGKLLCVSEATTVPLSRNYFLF
# Assay Protocol: tandem-well NH3 assay, salicylic acid-hypochlorite
# Format: biochemical
Experimental Endpoint: IC50 (µM)
Please state the figure in µM; there is no need to write the unit.

For orientation, consider the following solved cases.
{"Compound": "Cc1[nH]c2ccccc2c1CCNCc1ccc(/C=C/C(=O)NO)cc1 [panobinostat]", "Measurement": 0.2}
{"Compound": "CC(=O)NO [acetohydroxamic acid]", "Measurement": 162}
{"Compound": "CCN(CC)C(=S)SSC(=S)N(CC)CC [disulfiram]", "Measurement": 38.9}
{"Compound": "O=C1c2ccccc2[Se](=O)N1c1ccccc1 (stereo not shown) [Ebselen oxide]", "Measurement": 0.4}
{"Compound": "O=C(CCCCCCC(=O)Nc1ccccc1)NO [vorinostat]", "Measurement": 4.1}

Task: Using the record for O=c1[nH][se]c2ccccc12 [compound 4, Benzisoselenol-3-one] , report its IC50.
Output: 0.8

Task: Using the record for O=c1c2ccccc2[se]n1-c1ccccc1 [ebselen] , report its IC50.
Output: 0.4

Task: Using the record for O=C(/C=C/c1cccc(S(=O)(=O)Nc2ccccc2)c1)NO [belinostat] , report its IC50.
Output: 4.7

Task: Using the record for CCCn1[se]c2ccccc2c1=O [compound 5, 2-Propyl-benzisoselenol-3-one] , report its IC50.
Output: 1.4

Task: Using the record for CN(C)Cc1c(C(=O)NCCOc2ccc(C(=O)NO)cc2)oc2ccccc12 [abexinostat] , report its IC50.
Output: 1.4

* * *

# Study System: H. pylori urease (HPU) (Helicobacter pylori, UniProt P69996)
# Assay Protocol: tandem-well NH3 assay, Nessler's reagent, crude extract
# Format: biochemical
Experimental Endpoint: log10(IC50) (log10 of the value in µM)
# values: log10(IC50), units µM

For orientation, consider the following solved cases.
{"Molecule": "O=c1[nH][se]c2ccccc12", "Study System": "H. pylori urease (HPU) (Helicobacter pylori, UniProt P69996)", "Measurement": 0.04}
{"Molecule": "O=C(/C=C/c1cccc(S(=O)(=O)Nc2ccccc2)c1)NO", "Study System": "H. pylori urease (HPU) (Helicobacter pylori, UniProt P69996)", "Measurement": 0.51}

Task: Using the record for O=C1c2ccccc2[Se](=O)N1c1ccccc1 (centres unmarked) [Ebselen oxide] , report its log10(IC50).
Output: 0.18

Task: Using the record for "CCN(CC)C(=S)SSC(=S)N(CC)CC" , report its log10(IC50).
Output: 0.95

Task: Using the record for "Cc1[nH]c2ccccc2c1CCNCc1ccc(/C=C/C(=O)NO)cc1" , report its log10(IC50).
Output: -1.00

Task: Using the record for CC(=O)NO [acetohydroxamic acid] , report its log10(IC50).
Output: 1.41

Task: Using the record for "O=C(CCCCCCC(=O)Nc1ccccc1)NO" , report its log10(IC50).
Output: 1.15
